Listed molecules paired with reported reporter increase
assay: Bmi1 luciferase reporter increase in mESCs, primary screen, esBAF inhibitor project, mouse ES cells, Bmi1 luciferase knock-in, single point (AID 602393); settings: 24 h, at 12.5 µM, stronger effect = higher value, 100% = twice the neutral-well signal;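 further: 0% = median of the plate's neutral control wells and 100% = double that signal; a rise in the Bmi1 reporter signal indicates esBAF inhibition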
Out of some 350,000 compounds screened, about 7,000 (2%) were called active. What follows is part of a selection rich in actives, with near analogues and random picks from the rest.

[
  {
    "molecule": "CC(c1ccccn1)N(C)C(=O)c1ccc2nc(Cc3cccc(Cl)c3)oc2c1 (centres undefined)",
    "unit.of.measurement": "%",
    "reporter increase": 73.4
  },
  {
    "molecule": "CSc1ccccc1NC(=O)c1cc(Cl)sc1Cl",
    "unit.of.measurement": "%",
    "reporter increase": -9.78
  },
  {
    "molecule": "CCCNC(=O)N1C[C@H]2[C@@H](c3ccccc31)[C@@H](CO)N2C(=O)NCCC",
    "unit.of.measurement": "%",
    "reporter increase": -2.97
  },
  {
    "molecule": "COc1cc(C=O)c(Br)cc1OCC(=O)NCc1ccccc1",
    "unit.of.measurement": "%",
    "reporter increase": 0.717
  }
]
